Tested on: Human primary T cells
assay_details: IL-2 ELISA, Human Primary T Cell, Anti-CD3+CD28+ (Example 3)
Format: cell-based
condition_set: Homo sapiens, T-cell, 24 h, anti-CD3+CD28 stimulation
experimental_endpoint: IC50 (nM)

Example results:
CN1C(C)(C)CC(Nc2nc(Nc3ccc4c(c3)oc(=O)n4CCF)ncc2F)CC1(C)C :: 750
CC1(C)CC(Nc2nc(Nc3ccc4c(c3)oc(=O)n4CC3CC3)ncc2C#N)CC(C)(C)N1 :: 500
CCn1c(=O)oc2ccc(Nc3ncc(F)c(NC4CC(C)(C)NC(C)(C)C4)n3)cc21 :: 2940
CN1C(C)(C)CC(Nc2nc(Nc3ccc4cnn(C)c4c3)ncc2F)CC1(C)C :: 1610

a: CN1C(C)(C)CC(Nc2nc(Nc3cccc(C#N)c3)ncc2F)CC1(C)C
b: COc1cc(Nc2ncc(F)c(NC3C[C@H](C)N(C)[C@@H](C)C3)n2)cc(-n2nnnc2C)c1 (stereo partly drawn)
Challenge: Which entry has a larger number for IC50, a or b ? Record your answer as the label of the chosen record.
Response given: b

* * *

Test system: Human primary T cells
assay_details: IL-2 ELISA, Human Primary T Cell, Anti-CD3+CD28+ (Example 3)
Assay type: cell-based
condition_set: Homo sapiens, T-cell, 24 h, anti-CD3+CD28 stimulation
experimental_endpoint: IC50 (nM)

Examples with their reported IC50 follow.
CSc1nnnn1-c1cccc(Nc2ncc(C#N)c(NC3CC(C)(C)NC(C)(C)C3)n2)c1 :: 280
CCN1C(=O)C(C)(C)Sc2cc(Nc3ncc(F)c(NC4CC(C)(C)N(C)C(C)(C)C4)n3)ccc21 :: 77.2
CN1C(C)(C)CC(Nc2nc(Nc3nc4ccc(S(C)(=O)=O)cc4s3)ncc2F)CC1(C)C :: 1080
CN1C(C)(C)CC(Nc2nc(Nc3ccc(C(F)(F)F)c(N4CCN(S(C)(=O)=O)CC4)c3)ncc2F)CC1(C)C :: 174
CN1C(C)(C)CC(Nc2nc(Nc3cccc(OC(F)(F)F)c3)ncc2F)CC1(C)C :: 184

I: CN1C(C)(C)CC(Nc2nc(Nc3ccc4c(c3)C(=O)NC4=O)ncc2F)CC1(C)C
II: Cc1cc(Nc2ncc(F)c(NC3CC(C)(C)N(C)C(C)(C)C3)n2)ccc1N1CCN(C)CC1
Challenge: Which shows the larger IC50 value: I or II ? // respond with label for picked entry
Response given: I

a: Cc1ccc(Nc2ncc(C#N)c(NC3CC(C)(C)NC(C)(C)C3)n2)cc1-n1cnnn1
b: CN1C(C)(C)CC(Nc2nc(Nc3cccc(-c4cc5ccccc5s4)c3)ncc2F)CC1(C)C
c: CN1C(C)(C)CC(N(Cc2ccc(-c3ccccc3)cc2)c2nc(Nc3ccc4c(c3)OCCO4)ncc2F)CC1(C)C
d: CN1C(C)(C)CC(Nc2nc(Nc3cc(Cl)cc(Cl)c3)ncc2F)CC1(C)C
Challenge: Output the entries ranked by IC50 from maximum down to minimum. Submit the labels in the order that the ranking request calls for.
Response given: c, b, a, d
(c: 2480 nM, b: 527 nM, a: 230 nM, d: 129 nM)

* * *

System: Human primary T cells
assay_details: IL-2 ELISA, Human Primary T Cell, Anti-CD3+CD28+ (Example 3)
Type: cell-based
condition_set: Homo sapiens, T-cell, 24 h, anti-CD3+CD28 stimulation
experimental_endpoint: IC50 (nM)

CCOc1ccc(Nc2ncc(F)c(NC3CC(C)(C)NC(C)(C)C3)n2)cc1-n1nnnc1CC [Compound I-415] :: 60
CN1C(C)(C)CC(Nc2nc(Nc3ccc4c(c3)oc(=O)n4CCN3CCOCC3)ncc2C#N)CC1(C)C [II-169] :: 3500
CN1C(C)(C)CC(Nc2nc(Nc3ccc(-c4cccnc4)c(F)c3)ncc2F)CC1(C)C [Compound I-118] :: 237
CN1C(C)(C)CC(Nc2nc(Nc3ccc(N4CCN(S(C)(=O)=O)CC4)c(Cl)c3)ncc2C(F)(F)F)CC1(C)C [Compound I-92] :: 208
CN1C(C)(C)CC(Nc2nc(Nc3cccc(C#N)c3)ncc2C#N)CC1(C)C [Compound I-97] :: 289
CN1C(C)(C)CC(Nc2nc(Nc3cccc(OC(F)(F)F)c3)ncc2Cl)CC1(C)C [Compound I-240] :: 683
CN1C(C)(C)CC(Nc2nc(Nc3ccc4c(c3)OC3(CCCC3)O4)ncc2F)CC1(C)C [II-113] :: 2170

1: Cc1cc(C)cc(Nc2ncc(F)c(NC3CC(C)(C)N(C)C(C)(C)C3)n2)c1 [Compound I-12]
2: CN1C(C)(C)CC(Nc2nc(Nc3ncc([N+](=O)[O-])s3)ncc2F)CC1(C)C [II-14]
Challenge: Please compare: 1 and 2 . Report which one has the smaller IC50 value. // return label of chosen record
Response given: 1
(1: 341 nM, 2: 2570 nM)
